Hey, just so you know, these numbers are from paper PMC5693944.

Molecular target: T1, Ml2 (Mesorhizobium loti, UniProt A0A1A5JHX8 1-141)
T1 sequence: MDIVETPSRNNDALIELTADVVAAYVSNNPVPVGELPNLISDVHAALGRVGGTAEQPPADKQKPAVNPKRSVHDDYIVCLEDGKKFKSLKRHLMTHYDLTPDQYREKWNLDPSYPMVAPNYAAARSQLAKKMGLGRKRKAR
Assay: EMSA
Settings: protein: recombinant; chain copies: 10
EXPERIMENTAL_ENDPOINT: binding result

                                     binder  experimental_endpoint  recorded_result
0  Core4 (dsDNA) DNA 1: GCGAAAAAAATAATTTTGCC DNA 2: GGCAAAATTATTTTTTTCGC         binding result            binds
1  Exoy43bp (dsDNA) DNA 1: CCACTGAAATAGTCGCGTCATGAATTGACTAAATAATAAGCTA DNA 2: TAGCTTATTATTTAGTCAATTCATGACGCGACTATTTCAGTGG         binding result            binds
2  Seq1.1 (dsDNA) DNA 1: CCACGTCCCTAGTCGCGTCA DNA 2: TGACGCGACTAGGGACGTGG         binding result       no binding
3  Core5 (dsDNA) DNA 1: GGCGCCGATATATCGGAGCG DNA 2: CGCTCCGATATATCGGCGCC         binding result            binds

Output measured binding result for this item: Core2mut (dsDNA) DNA 1: GGCGCCGAAAAAACGGAGCG DNA 2: CGCTCCGTTTTTTCGGCGCC
no binding

Indicate the recorded binding result value for this binder: Seq1.2 (dsDNA) DNA 1: CCACTGACCGCGTCGCGTCA DNA 2: TGACGCGACGCGGTCAGTGG
no binding
